List of pKd values.
target: T1, IFN-αJ1 (human, UniProt P01567 24-189); experiment: ProteOn SPR, cell supernatant;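 also: each binding measurement used just a single antigen concentration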
T1 construct: Recombinant, HEK293; also called IFN-α7
pKd: −log10 of the molar value.
Measured Property: pKd

[
  {
    "Binder": "IFWM3386 (antibody, IgG1, V domains shown, mAb; IgG1/kappa said of the parent and of selected mAbs; also called IFWB3121) VH: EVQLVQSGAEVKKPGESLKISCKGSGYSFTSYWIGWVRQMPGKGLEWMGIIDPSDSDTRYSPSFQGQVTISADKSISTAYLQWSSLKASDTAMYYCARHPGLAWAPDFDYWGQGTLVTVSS VL: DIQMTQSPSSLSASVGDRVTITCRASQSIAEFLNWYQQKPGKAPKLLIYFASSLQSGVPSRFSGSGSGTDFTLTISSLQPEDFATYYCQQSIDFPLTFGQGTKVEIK",
    "Measured Property": "pKd",
    "Observed Value": 10.06
  },
  {
    "Binder": "IFWM3377 (antibody, IgG1, V domains shown, mAb; IgG1/kappa said of the parent and of selected mAbs; also called IFWB3112) VH: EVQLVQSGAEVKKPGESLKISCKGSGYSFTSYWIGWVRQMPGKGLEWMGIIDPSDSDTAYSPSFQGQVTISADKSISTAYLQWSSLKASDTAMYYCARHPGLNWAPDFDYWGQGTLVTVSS VL: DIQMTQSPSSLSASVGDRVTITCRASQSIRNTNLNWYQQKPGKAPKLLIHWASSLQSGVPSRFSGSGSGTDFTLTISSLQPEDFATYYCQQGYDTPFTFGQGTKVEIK",
    "Measured Property": "pKd",
    "Observed Value": 9.72
  },
  {
    "Binder": "IFWM3413 (antibody, IgG1, V domains shown, mAb; IgG1/kappa said of the parent and of selected mAbs; also called IFWB3148) VH: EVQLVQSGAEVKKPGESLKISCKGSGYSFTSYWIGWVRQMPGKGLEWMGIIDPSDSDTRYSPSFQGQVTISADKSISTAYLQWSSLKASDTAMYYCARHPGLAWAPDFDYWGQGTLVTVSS VL: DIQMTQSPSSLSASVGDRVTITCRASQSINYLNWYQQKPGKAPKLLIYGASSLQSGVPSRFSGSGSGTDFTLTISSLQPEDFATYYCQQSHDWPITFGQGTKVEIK",
    "Measured Property": "pKd",
    "Observed Value": 9.82
  }
]
